Below, each entry is listed alongside its reported IC50.
Target: hFAAH (Homo sapiens)
Sequence (O00519 1-579): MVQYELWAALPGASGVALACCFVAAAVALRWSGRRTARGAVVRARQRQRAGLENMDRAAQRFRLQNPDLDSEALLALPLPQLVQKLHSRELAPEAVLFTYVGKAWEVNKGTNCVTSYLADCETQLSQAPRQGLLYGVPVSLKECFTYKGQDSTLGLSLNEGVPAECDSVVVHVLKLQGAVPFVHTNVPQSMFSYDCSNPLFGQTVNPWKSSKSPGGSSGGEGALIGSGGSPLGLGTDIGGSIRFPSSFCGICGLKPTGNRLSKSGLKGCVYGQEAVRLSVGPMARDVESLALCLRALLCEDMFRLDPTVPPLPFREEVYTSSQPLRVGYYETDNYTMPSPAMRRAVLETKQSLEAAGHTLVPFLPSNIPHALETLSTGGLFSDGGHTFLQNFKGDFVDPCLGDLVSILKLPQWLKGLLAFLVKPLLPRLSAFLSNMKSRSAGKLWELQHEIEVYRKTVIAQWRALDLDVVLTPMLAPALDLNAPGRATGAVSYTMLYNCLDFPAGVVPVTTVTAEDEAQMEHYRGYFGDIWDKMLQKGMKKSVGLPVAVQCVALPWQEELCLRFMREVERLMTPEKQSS
measured_parameter: IC50 (µM)

[[record]]
compound = "O=C1CC(c2nc3ccccc3o2)CN1c1ccc([N+](=O)[O-])cc1 (stereo not shown)"
measured_target = "hFAAH (Homo sapiens)"
measured_parameter = "IC50"
measurement_units = "µM"
value_reported = 55

[[record]]
compound = "NS(=O)(=O)c1ccc(N2CC(c3nc4ccccc4o3)CC2=O)cc1 (stereo not shown)"
measured_target = "hFAAH (Homo sapiens)"
measured_parameter = "IC50"
measurement_units = "µM"
value_reported = 68

[[record]]
compound = "COc1ccc(N2CC(c3nc4ccccc4o3)CC2=O)cc1 (stereo not shown)"
measured_target = "hFAAH (Homo sapiens)"
measured_parameter = "IC50"
measurement_units = "µM"
value_reported = 37

[[record]]
compound = "O=C1CC(c2nc3ccccc3o2)CN1c1ccc(F)c(Cl)c1 (stereo not shown)"
measured_target = "hFAAH (Homo sapiens)"
measured_parameter = "IC50"
measurement_units = "µM"
value_reported = 25

